Value source: PubChem BioAssay (NCI)

# Test system: MALME-3M melanoma
# method: NCI tumour cell line growth inhibition, 48 h; in the data active = GI50 below about 0.43 µM; inactive = the rest
Tick one outcome: TRUE for active, FALSE for inactive

Task: Check the results log: what was the call for COc1cc(C2C3=C(COC3=O)Oc3cc4c(cc32)OCO4)cc(OC)c1OC (stereo not given) ?
Output: TRUE

Task: Check the results log: what was the call for N#Cc1c(N)nc(NCc2ccccc2)c(C#N)c1-c1ccc(Cl)cc1 ?
Output: FALSE

Task: Check the results log: what was the call for NCCCCCCn1c2c(c3ccccc3c1=O)C(=O)c1ccccc1-2 ?
Output: FALSE

Task: Check the results log: what was the call for O=C(O[C@H]1CN[C@H](C#Cc2cc3ncnc(Nc4ccc5c(cnn5Cc5ccccc5)c4)c3s2)C1)N1CCOCC1 ?
Output: FALSE

Task: Check the results log: what was the call for CCN(CC)CCNC(=O)c1cn2ncnc(Oc3ccc(NC(=O)Nc4ccc(Cl)c(C(F)(F)F)c4)cc3)c2c1C ?
Output: FALSE
